Values compiled from ChEMBL document CHEMBL2218924.

biological target: Mitogen-activated protein kinase 9 (Homo sapiens); conditions: at 10 µM
Description: Millipore: Percentage of residual kinase activity of MAPK9 at 10uM relative to control. Control inhibitor: Jnk Inhibitor II at 100.0uM. Buffer: 50 mM Tris pH 7.5, 0.1 mM EGTA, 0.1% ?-mercaptoethanol
Mark true only when residual activity stays strictly below 80%. Values equal to the cut-off are false.

Solved cases below.
O=c1c(-c2ccc(F)cc2)c(-c2ccncc2)[nH]n1-c1ccc(Cl)cc1; true
CSc1nc(-c2ccc(F)cc2)c(-c2ccnc(NC(C)c3ccccc3)c2)[nH]1 (stereo not given); true
Nc1n[nH]c2nc3ccccc3nc12; false
O=C1Nc2ccccc2/C1=C\c1c(Cl)[nH]c2ccccc12; true

Request: Hi there! Is residual activity for Nc1ncnc2[nH]nc(Nc3ccc(F)cc3)c12 below 80%, do you know?
Result: false

Request: Consider next the compound COc1cc2nccc(Oc3ccc(NC(=S)NC(=O)c4ccccc4C)cc3)c2cc1OC in the same way.
Result: false

Request: Consider next the compound NCCNc1ncc(C(N)=O)c(Nc2cccc(C(F)(F)F)c2)n1 in the same way.
Result: true

Request: Consider next the compound NC(=O)Nc1sc(-c2ccc(F)cc2)cc1C(N)=O in the same way.
Result: true

Request: Consider next the compound CC(C)N(CCC(=O)c1ccc2ccccc2c1)Cc1ccccc1 in the same way.
Result: false

Request: Consider next the compound CCOc1nc(NC(=O)Cc2cc(OC)ccc2OC)cc(N)c1C#N in the same way.
Result: true
